In this section, each of the compounds is paired with its reported % Avoidance Responses ± SEM.
- Test system: Rats
- protocol: Conditioned avoidance behavior in rats
- Format: in vivo, rat
- study-conditions: first component dose 0.01 in combination with Xanomeline dose 10
Please make sure the unit comes right after the number.

Please fill in: % Avoidance Responses ± SEM reported for Cc1cc2c(s1)Nc1ccccc1N=C2N1CCN(C)CC1 [Olanzapine] = 66 ± 11%

Please fill in: % Avoidance Responses ± SEM reported for OCCN1CCN(CCCN2c3ccccc3Sc3ccc(C(F)(F)F)cc32)CC1 [Fluphenazine] = 77 ± 12%

Please fill in: % Avoidance Responses ± SEM reported for O=C(CCCN1CCC(O)(c2ccc(Cl)cc2)CC1)c1ccc(F)cc1 [Haloperidol] = 57 ± 6%

Please fill in: % Avoidance Responses ± SEM reported for Cc1nc2n(c(=O)c1CCN1CCC(c3noc4cc(F)ccc34)CC1)CCCC2 [Risperidone] = 23 ± 14%
